From: ChEMBL document CHEMBL4229573

target: Son of sevenless homolog 1 (Homo sapiens); experiment: Activation of SOS1 in human HeLa cells assessed as effect on RAS-GTP levels by measuring […] at 6.3 uM after 30 mins by active RAS pull-down assay relative to control; format: cell-based
# maps each entry to its fold change (FC)
QUANTITY_MEASURED: fold change (FC)

>>> recorded_measurement("C[C@@H](Nc1nc(Nc2ccc(F)c(Cl)c2)nc2ccccc12)C1CC1")
0.85
>>> recorded_measurement("C[C@@H](Nc1nc(Nc2ccc(F)c(Cl)c2)nc2c(CN)cccc12)C1CC1")
1.39
>>> recorded_measurement("C[C@@H](Nc1nc(Nc2ccc(F)c(Cl)c2)nc2c(CCN)cccc12)C1CC1")
1.64
>>> recorded_measurement("C[C@@H](Nc1nc(Nc2ccc(F)c(Cl)c2)nc2c(C3=CCNCC3)cccc12)C1CC1")
1.08

###

molecular target: Son of sevenless homolog 1 (Homo sapiens); assay: Activation of SOS1 in human HeLa cells assessed as effect on ERK1/2 phosphorylation at T202/Y204 residue by measuring […] at 12.5 uM after 30 mins by Western blot analysis relative to control; assay type: cell-based
QUANTITY_MEASURED: fold change (FC)

>>> recorded_measurement("C[C@@H](Nc1nc(Nc2ccc(F)c(Cl)c2)nc2ccccc12)C1CC1")
1.67
>>> recorded_measurement("C[C@@H](Nc1nc(Nc2ccc(F)c(Cl)c2)nc2c(C3=CCNCC3)cccc12)C1CC1")
1.98
>>> recorded_measurement("C[C@@H](Nc1nc(Nc2ccc(F)c(Cl)c2)nc2c(CN)cccc12)C1CC1")
1.83
>>> recorded_measurement("C[C@@H](Nc1nc(Nc2ccc(F)c(Cl)c2)nc2c(CCN)cccc12)C1CC1")
1.59

###

biological target: Son of sevenless homolog 1 (Homo sapiens); assay: Activation of SOS1 in human HeLa cells assessed as effect on RAS-GTP levels by measuring […] at 100 uM after 30 mins by active RAS pull-down assay relative to control; format: cell-based
# maps each entry to its fold change (FC)
QUANTITY_MEASURED: fold change (FC)

>>> recorded_measurement("C[C@@H](Nc1nc(Nc2ccc(F)c(Cl)c2)nc2c(CCN)cccc12)C1CC1")
1.66
>>> recorded_measurement("C[C@@H](Nc1nc(Nc2ccc(F)c(Cl)c2)nc2ccccc12)C1CC1")
1.39
>>> recorded_measurement("C[C@@H](Nc1nc(Nc2ccc(F)c(Cl)c2)nc2c(C3=CCNCC3)cccc12)C1CC1")
1.51
>>> recorded_measurement("C[C@@H](Nc1nc(Nc2ccc(F)c(Cl)c2)nc2c(CN)cccc12)C1CC1")
1.54

###

biological target: Son of sevenless homolog 1 (Homo sapiens); test: Activation of SOS1 in human HeLa cells assessed as effect on ERK1/2 phosphorylation at T202/Y204 residue by measuring […] at 50 uM after 30 mins by Western blot analysis relative to control; type: cell-based
QUANTITY_MEASURED: fold change (FC)

>>> recorded_measurement("C[C@@H](Nc1nc(Nc2ccc(F)c(Cl)c2)nc2c(CN)cccc12)C1CC1")
2.43
>>> recorded_measurement("C[C@@H](Nc1nc(Nc2ccc(F)c(Cl)c2)nc2c(CCN)cccc12)C1CC1")
1.18
>>> recorded_measurement("C[C@@H](Nc1nc(Nc2ccc(F)c(Cl)c2)nc2ccccc12)C1CC1")
3.68
>>> recorded_measurement("C[C@@H](Nc1nc(Nc2ccc(F)c(Cl)c2)nc2c(C3=CCNCC3)cccc12)C1CC1")
1.16
